Test system: Puccinia recondita
Assay: Puccinia test (wheat)/protective
Type: in vivo
Details: wheat plants, protective, application rate 500 g/ha, evaluation 10 days after inoculation
We begin with a simple list: items and their reported Efficacy in %.
MEASURE_NAME: Efficacy in % (%)

> print(dat)
                                   molecule   measure.name  reading
1  Cc1occc1C(=O)Nc1ccccc1-c1ncc(C(F)(F)F)cc1Cl [1-8-2]  Efficacy in %      100
2  Cc1nn(C)c(F)c1C(=O)Nc1ccccc1-c1ccnc(Br)c1 [1-7-4]  Efficacy in %      100
3  O=C(Nc1ccccc1-c1ncc(C(F)(F)F)cc1Cl)c1ccccc1C(F)(F)F [1-8-1]  Efficacy in %      100
4  O=C(Nc1ccccc1-c1ccc(Cl)cn1)c1cccnc1Cl [1-8-10]  Efficacy in %       94
5  Cc1ccsc1C(=O)Nc1ccccc1-c1ncc(C(F)(F)F)cc1Cl [1-8-3]  Efficacy in %      100
6  Cn1cc(C(=O)Nc2ccccc2-c2ccnc(Br)c2)c(C(F)F)n1 [1-7-6]  Efficacy in %      100

* * *

Experiment: logP determination by HPLC (reversed-phase C 18), EEC Directive 79/831 Annex V.A8
Assay type: physicochemical
Details: reversed-phase HPLC column (C 18); HPLC, reversed-phase C 18, 43° C., acidic range (0.1% aqueous phosphoric acid/acetonitrile); read-out: logP
MEASURE_NAME: chromatographic logP

> print(dat)
                                   molecule  reading
1  O=C(Nc1ccccc1-c1ccnc(Br)c1)c1ccccc1C(F)(F)F [1-7-5]     2.85
2  O=C(Nc1ccccc1-c1ccc(Cl)cn1)c1cccnc1Cl [1-8-10]     2.95
3  Cn1cc(C(=O)Nc2ccccc2-c2ccc(Cl)nc2)c(C(F)F)n1 [1-6-7]      2.1
4  Cc1nc(C(F)(F)F)c(C(=O)Nc2ccccc2-c2ncc(C(F)(F)F)cc2Cl)s1 [1-8-28]     3.48
5  Cn1cc(C(=O)Nc2ccccc2-c2ccc(Cl)cn2)c(C(F)F)n1 [1-8-14]     3.05

* * *

The following compounds are listed with their measured Efficacy in % values.
Test system: Alternaria solani
Assay: Alternaria test (tomato)/protective
Type: in vivo
Details: tomato plants, protective, application rate 750 g/ha, evaluation 7 days after inoculation
MEASURE_NAME: Efficacy in % (%)

> print(dat)
                              smiles.record                tgt  reading
1  Cn1cc(C(=O)Nc2ccccc2-c2ccnc(Br)c2)c(C(F)F)n1  Alternaria solani       95
2  O=C(Nc1ccccc1-c1ccc(C(F)(F)F)cn1)c1ccccc1C(F)(F)F  Alternaria solani       95
3  Cc1nc(C(F)(F)F)c(C(=O)Nc2ccccc2-c2cc(Cl)nc(Cl)c2)s1  Alternaria solani      100
4  Cc1ccsc1C(=O)Nc1ccccc1-c1ncc(C(F)(F)F)cc1Cl  Alternaria solani       95
5  Cc1occc1C(=O)Nc1ccccc1-c1ncc(C(F)(F)F)cc1Cl  Alternaria solani      100

* * *

Test: logP determination by HPLC (reversed-phase C 18), EEC Directive 79/831 Annex V.A8
Format: physicochemical
Conditions: reversed-phase HPLC column (C 18); HPLC, reversed-phase C 18, 43° C., acidic range (0.1% aqueous phosphoric acid/acetonitrile); read-out: logP
Experimental: The logP values given in the Preparation Examples were determined in accordance with EEC Directive 79/831 Annex V.A8 by HPLC (High Performance Liquid Chromatography) using a reversed-phase column (C 18). Temperature: 43° C. Mobile phases for the determination in the acidic range: 0.1% aqueous phosphoric acid, acetonitrile; linear gradient from 10% acetonitrile to 90% acetonitrile. […]
Label label 1 when chromatographic logP is at or above 3; anything below gets label 0.

> print(dat)
                               smiles.record  assigned.label
 1  O=C(Nc1ccccc1-c1ncc(C(F)(F)F)cc1Cl)C1=C(C(F)(F)F)OCCS1         label 1
 2  O=C(Nc1ccccc1-c1ncc(C(F)(F)F)cc1Cl)c1ccccc1Br         label 1
 3  Cc1ccsc1C(=O)Nc1ccccc1-c1ncc(C(F)(F)F)cc1Cl         label 1
 4  O=C(Nc1ccccc1-c1ccc(Cl)cn1)c1ccccc1C(F)(F)F         label 1
 5  Cn1cc(C(=O)Nc2ccccc2-c2ccnc(Br)c2)c(C(F)F)n1         label 0
 6  O=C(Nc1ccccc1-c1ccc(C(F)(F)F)cn1)c1ccccc1C(F)(F)F         label 1
 7  Cc1nn(C)c(F)c1C(=O)Nc1ccccc1-c1ccnc(Br)c1         label 0
 8  Cc1occc1C(=O)Nc1ccccc1-c1ncc(C(F)(F)F)cc1Cl         label 1
 9  Cn1cc(C(=O)Nc2ccccc2-c2ncc(C(F)(F)F)cc2Cl)c(C(F)(F)F)n1         label 1
10  O=C(Nc1ccccc1-c1ncc(C(F)(F)F)cc1Cl)c1ccccc1Cl         label 1
11  Cc1nc(C(F)(F)F)c(C(=O)Nc2ccccc2-c2cc(Cl)nc(Cl)c2)s1         label 1
12  O=C(Nc1ccccc1-c1ncc(C(F)(F)F)cc1Cl)c1ccccc1C(F)(F)F         label 1

* * *

Test: logP determination by HPLC (reversed-phase C 18), EEC Directive 79/831 Annex V.A8
Type: physicochemical
Conditions: reversed-phase HPLC column (C 18); pH 2.3; HPLC, reversed-phase C 18, 43° C.; read-out: log P (pH 2.3)
Protocol: The logP values given in the Preparation Examples were determined in accordance with EEC Directive 79/831 Annex V.A8 by HPLC (High Performance Liquid Chromatography) using a reversed-phase column (C 18). Temperature: 43° C. Mobile phases for the determination in the acidic range: 0.1% aqueous phosphoric acid, acetonitrile; linear gradient from 10% acetonitrile to 90% acetonitrile. […]
MEASURE_NAME: chromatographic logP

> print(dat)
                                   compound          measure.name  reading
1  O=C(Nc1ccccc1-c1ncc(C(F)(F)F)cc1Cl)c1ccccc1C(F)(F)F [1-8-1]  chromatographic logP     3.58
2    O=C(Nc1ccccc1I)c1ccccc1C(F)(F)F [IV-1]  chromatographic logP     2.98
3    Nc1ccccc1-c1ncc(C(F)(F)F)cc1Cl [III-1]  chromatographic logP     2.79
4       CO/N=C/c1ccc(-c2ccccc2N)nc1 [III-2]  chromatographic logP     1.59
5  CON=Cc1ccc(-c2ccccc2NC(=O)c2cccnc2Cl)nc1 [1-8-15]  chromatographic logP     2.95

* * *

Listed next: entries and their corresponding chromatographic logP.
Assay: logP determination by HPLC (reversed-phase C 18), EEC Directive 79/831 Annex V.A8
Format: physicochemical
Details: reversed-phase HPLC column (C 18); HPLC, reversed-phase C 18, 43° C., acidic range (0.1% aqueous phosphoric acid/acetonitrile); read-out: logP
MEASURE_NAME: chromatographic logP

> print(dat)
                              smiles.record          measure.name  reading
1  Cn1cc(C(=O)Nc2ccccc2-c2ncc(C(F)(F)F)cc2Cl)c(I)n1  chromatographic logP     2.92
2  Cc1nn(C)c(F)c1C(=O)Nc1ccccc1-c1ccc(Cl)cn1  chromatographic logP     3.06
3  Cn1cc(C(=O)Nc2ccccc2-c2ncc(C(F)(F)F)cc2Cl)c(C(F)F)n1  chromatographic logP     2.91
4  CON=Cc1ccc(-c2ccccc2NC(=O)c2cccnc2Cl)nc1  chromatographic logP     2.95
